The molecules listed here are annotated with their melting point.

CN(C)C(=O)COc1cccc2c1S(=O)(=O)N=C2C1=C(O)[C@H](C(C)(C)C)N(Cc2ccc(F)cc2)C1=O | 137 °C
CC(C)(C)C1C(O)=C(C2=NS(=O)(=O)c3ccccc32)C(=O)N1Cc1ccc(F)cc1 (stereo not shown) | > 220 °C

For the molecule `CN(c1ccc(F)cc1)c1nc(C2=NS(=O)(=O)c3ccccc32)c(O)c2ccccc12` , give its measured melting point value.
215 to 217 °C

Consider the molecule `CC(C)(C)[C@H]1C(O)=C(C2=NS(=O)(=O)c3c(OCS(C)(=O)=O)cccc32)C(=O)N1Cc1ccc(F)cc1` and give its recorded melting point.
143 to 151 °C

----------
measurement.name: melting point

Reference set, count: 3
O=C1C(C2=NS(=O)(=O)c3ccccc32)=C(O)[C@H](C2CCCCC2)N1Cc1ccc(F)cc1.[Na] | 235 to 238 °C
CC(C)(C)[C@H]1C(O)=C(C2=NS(=O)(=O)c3c2cccc3-c2cnc(=O)[nH]c2)C(=O)N1Cc1ccc(F)cc1 | > 260 °C
CN(C)S(=O)(=O)Oc1cccc2c1S(=O)(=O)N=C2C1=C(O)[C@H](C(C)(C)C)N(Cc2ccc(F)cc2)C1=O | 116 to 126 °C

Identify melting point associated with the compound `Cc1cccc2c1S(=O)(=O)N=C2C1=C(O)[C@H](C(C)(C)C)N(Cc2ccc(F)cc2)C1=O`
> 250 °C

----------
Molecular target: HCV NS5B570n-BK (Hepatitis C virus genotype 1b)
Construct: histidine tag (N)
Sequence (P26663 2421-2999): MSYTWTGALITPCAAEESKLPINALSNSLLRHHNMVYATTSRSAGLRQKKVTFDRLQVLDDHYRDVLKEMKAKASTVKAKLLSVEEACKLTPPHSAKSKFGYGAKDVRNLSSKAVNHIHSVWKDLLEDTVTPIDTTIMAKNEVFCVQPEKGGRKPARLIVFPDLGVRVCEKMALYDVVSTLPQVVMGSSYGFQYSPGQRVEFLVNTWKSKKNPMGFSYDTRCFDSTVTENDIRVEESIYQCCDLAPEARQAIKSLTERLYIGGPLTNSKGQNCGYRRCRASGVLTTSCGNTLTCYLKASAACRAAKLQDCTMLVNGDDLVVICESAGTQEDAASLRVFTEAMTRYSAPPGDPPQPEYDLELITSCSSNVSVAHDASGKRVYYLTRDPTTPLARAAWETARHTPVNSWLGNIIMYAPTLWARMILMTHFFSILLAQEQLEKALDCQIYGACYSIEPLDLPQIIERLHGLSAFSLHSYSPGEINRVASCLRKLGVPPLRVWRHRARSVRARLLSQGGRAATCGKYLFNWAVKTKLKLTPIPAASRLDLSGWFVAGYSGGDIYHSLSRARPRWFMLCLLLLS
Test: HCV NS5B RNA Polymerase Activity
Settings: poly A:oligo U16, tritiated UTP, 2 h at 30° C.
measurement.name: pIC50
The scale used: pIC50 is minus the common logarithm of the concentration in molar units.

Consider the following illustrative entries.
CN(Cc1cccc2c1S(=O)(=O)N=C2C1=C(O)C(C(C)(C)C)N(Cc2ccc(F)cc2)C1=O)S(C)(=O)=O (centres unmarked) | 6.81
CC(C)(C)[C@H]1C(O)=C(C2=NS(=O)(=O)c3ccccc32)C(=O)N1Cc1ccc(F)c(Cl)c1 | 6.68

Return the recorded pIC50 value; entry: `CC(C)(C)[C@H]1C(O)=C(C2=NS(=O)(=O)c3c(CNS(C)(=O)=O)cccc32)C(=O)N1Cc1ccc(F)cc1`
7.12

Name the recorded pIC50 of the compound listed here: CC(C)(C)C1C(O)=C(C2=NS(=O)(=O)c3c(O)cccc32)C(=O)N1Cc1ccc(F)cc1 (centres unmarked)
7.28

Please give the documented pIC50 of `Cc1cc(CN2C(=O)C(C3=NS(=O)(=O)c4ccccc43)=C(O)[C@@H]2C(C)(C)C)ccc1F`
6.86

----------
measurement.name: melting point

// fetch melting point given entry `COc1cc(CN2C(=O)C(C3=NS(=O)(=O)c4c(CNS(C)(=O)=O)cccc43)=C(O)[C@@H]2C(C)(C)C)ccc1F`
121 to 126 °C

Note down melting point recorded for `CC(C)COc1cccc2c1S(=O)(=O)N=C2C1=C(O)[C@H](C(C)(C)C)N(Cc2ccc(F)cc2)C1=O`
99 to 106 °C

Complete the entry with melting point for `CS(=O)(=O)Nc1ccc2c(c1)S(=O)(=O)N=C2c1nc(Cc2ccc(F)cc2)c2ccccc2c1O`
> 275 °C

State its melting point for this compound: `CNC(=O)CNCc1cccc2c1S(=O)(=O)N=C2C1=C(O)[C@H](C(C)(C)C)N(Cc2ccc(F)cc2)C1=O`
175 to 180 °C

Tell us which melting point value is on record for `CC(C)C[C@H]1C(O)=C(C2=NS(=O)(=O)c3ccccc32)C(=O)N1Cc1ccc(F)cc1`
200 °C (dec.)

----------
Each item that follows carries a reported melting point.

Consider the compound `CNC(=O)NCc1cccc2c1S(=O)(=O)N=C2C1=C(O)[C@H](C(C)(C)C)N(Cc2ccc(F)cc2)C1=O` . State its measured melting point.
> 250 °C

----------
The entries below come with measured melting point values attached.

Take a look at these entries with their results.
CC(C)CCc1nc(C2=NS(=O)(=O)c3ccccc32)c(O)c2ccccc12 | 206 to 209 °C
CC(C)(C)[C@H]1C(O)=C(C2=NS(=O)(=O)c3ccccc32)C(=O)N1Cc1cccs1 | 105 to 123 °C
O=S1(=O)N=C(c2nc(Cc3ccc(F)cc3)c3ccccc3c2O)c2cccc(-c3ccc(F)cc3)c21 | > 275 °C
CC(C)(C)[C@H]1C(O)=C(C2=NS(=O)(=O)c3c(CNS(C)(=O)=O)cccc32)C(=O)N1Cc1ccc(F)c(Br)c1 | 138 to 159 °C
CC(C)(C)[C@H]1C(O)=C(C2=NS(=O)(=O)c3c(CS(N)(=O)=O)cccc32)C(=O)N1Cc1ccc(F)cc1 | 159 to 173 °C

Return reported melting point. Input compound: `CCOC(=O)CNc1cccc2c1S(=O)(=O)N=C2C1=C(O)[C@H](C(C)(C)C)N(Cc2ccc(F)cc2)C1=O`
148 to 152 °C

Look up and report measured melting point for this entry: `CC(C)(C)[C@H]1C(O)=C(C2=NS(=O)(=O)c3ccccc32)C(=O)N1Cc1ccc(F)c(Cl)c1`
81 to 96 °C

Find the measured melting point of `CC(C)(C)[C@H]1C(O)=C(C2=NS(=O)(=O)c3c(CNS(=O)(=O)N4CCNCC4)cccc32)C(=O)N1Cc1ccc(F)cc1.O=C(O)C(F)(F)F` and report it.
95 to 115 °C

Find the measured melting point of `CC(C)(C)[C@H]1C(O)=C(C2=NS(=O)(=O)c3ccccc32)C(=O)N1Cc1ccc(=O)[nH]c1` and report it.
149 to 190 °C

Identify measured melting point associated with `CC(C)(C)[C@H]1C(O)=C(C2=NS(=O)(=O)c3c(NS(C)(=O)=O)cccc32)C(=O)N1Cc1ccc(F)cc1`
245 to 250 °C

Tell me its melting point given `CCC(=O)N(Cc1cccc2c1S(=O)(=O)N=C2C1=C(O)[C@H](C(C)(C)C)N(Cc2ccc(F)c(C)c2)C1=O)S(C)(=O)=O` as the entry.
98 to 99.8 °C

Name the recorded melting point of the item `CNS(=O)(=O)COc1cccc2c1S(=O)(=O)N=C2C1=C(O)[C@H](C(C)(C)C)N(Cc2ccc(F)cc2)C1=O` in your answer.
155 to 165 °C

----------
Examples of molecules with documented melting point follow.

Return reported melting point. Input molecule: `CC(=O)Nc1cccc(-c2cccc3c2S(=O)(=O)N=C3C2=C(O)[C@H](C(C)(C)C)N(Cc3ccc(F)cc3)C2=O)c1`
255 to 260 °C

Please report melting point for the following molecule: Cc1cc(CN2C(=O)C(C3=NS(=O)(=O)c4c(CNS(=O)(=O)N5CCC(S(C)(=O)=O)C5)cccc43)=C(O)[C@@H]2C(C)(C)C)ccc1F (some centres unmarked)
124 to 137 °C

Answer with reported melting point of `CC(C)(C)[C@H]1C(O)=C(C2=NS(=O)(=O)c3c(CNS(C)(=O)=O)cccc32)C(=O)N1Cc1ccc(F)cc1`
105 to 128 °C

Please report the measured melting point for `CC(C)(C)[C@H]1C(O)=C(C2=NS(=O)(=O)c3c(CNS(C)(=O)=O)cccc32)C(=O)N1CCC1CCCC1`
74 to 86 °C

Consider the molecule CC(C)CC1C(O)=C(C2=NS(=O)(=O)c3ccccc32)C(=O)N1Cc1ccc(F)cc1 (centres unmarked) . State its measured melting point.
200 °C (dec.)

Consider the molecule `COc1ccc(-c2cccc3c2S(=O)(=O)N=C3c2nc(Cc3ccc(F)cc3)c3ccccc3c2O)cn1` and give its recorded melting point.
194 to 196 °C

Return melting point (reported value) for this molecule: `CC(C)(C)[C@H]1C(O)=C(C2=NS(=O)(=O)c3c(CNS(=O)(=O)c4cccs4)cccc32)C(=O)N1Cc1ccc(F)cc1`
175 to 192 °C

Please report melting point for the following molecule: `CS(=O)(=O)Nc1cccc(-c2cccc3c2S(=O)(=O)N=C3c2nc(Cc3ccc(F)cc3)c3ccccc3c2O)c1`
> 275 °C

Indicate the recorded melting point value for this molecule: `Cc1cc(CN2C(=O)C(C3=NS(=O)(=O)c4ccccc43)=C(O)[C@@H]2C(C)(C)C)ccc1F`
105 to 111 °C

For the molecule Cc1cc(CN2C(=O)C(C3=NS(=O)(=O)c4c(CNS(=O)(=O)N5CCC(N)C5)cccc43)=C(O)[C@@H]2C(C)(C)C)ccc1F.O=C(O)C(F)(F)F (some centres unmarked) , give its reported melting point.
128 to 134 °C

Respond only with melting point recorded for `CC(C)(C)[C@H]1C(O)=C(C2=NS(=O)(=O)c3ccccc32)C(=O)N1CC1CCC1`
69 to 78 °C

----------
Item-by-item account of melting point

For the compound `CC(C)(C)[C@H]1C(O)=C(C2=NS(=O)(=O)c3c(CNS(=O)(=O)c4ccccc4)cccc32)C(=O)N1Cc1ccc(F)cc1` , report melting point.
96 to 112 °C

Given the compound `Cc1ccc2c(Cc3ccc(F)cc3)nc(C3=NS(=O)(=O)c4ccccc43)c(O)c2c1` , write its reported melting point.
> 275 °C

Assign melting point to the following record: CC(=O)NC1CCN(S(=O)(=O)NCc2cccc3c2S(=O)(=O)N=C3C2=C(O)[C@H](C(C)(C)C)N(Cc3ccc(F)c(C)c3)C2=O)C1 (stereo partly drawn)
239 to 259 °C
